target-entity: Sodium- and chloride-dependent GABA transporter 1 (Mus musculus)
The label is true for Ki below 5 µM and false for Ki equal to or exceeding 5 µM.

# example entries with known answers
O=C(O)C1CCCN(C/C=C/C(c2ccccc2)(c2ccccc2)c2ccccc2)C1 (racemic); false
O=C(O)C1CCCN(C/C=C/C(c2ccc3occc3c2)(c2ccc3occc3c2)c2ccc3occc3c2)C1 (racemic); true
COc1ccc(C(/C=C/CN2CCC[C@H](C(=O)O)C2)(c2ccc(OC)cc2)c2ccc3sccc3c2)cc1; false
COc1ccc(C(/C=C/CN2CCCC(C(=O)O)C2)c2ccc(OC)cc2)cc1 (racemic); true

Data request: Field: below-cutoff. Rule: recorded Ki strictly less than 5 µM. Subject: O=C(O)C1CCCN(C/C=C/CC(c2ccccc2)c2ccccc2)C1 (racemic)
Data returned: true

Data request: Field: below-cutoff. Rule: recorded Ki strictly less than 5 µM. Subject: COc1ccc(C(/C=C/CN2CCCC(C(=O)O)C2)(Cc2ccccc2)c2ccc(OC)cc2)cc1 (racemic)
Data returned: true

Data request: Field: below-cutoff. Rule: recorded Ki strictly less than 5 µM. Subject: COc1ccc(C(/C=C/CN2CCCC(C(=O)O)C2)(c2ccc(OC)cc2)c2nccs2)cc1 (racemic)
Data returned: false
